Target entity: T1, human LRRC15 extracellular domain with C-terminal His tag (human, UniProt Q8TF66 22-538)
T1 construct: Recombinant, made in HEK293; the entry holds the extracellular domain and the His tag; SPR analyte; also called TPP-1545; hLRRC15 CT-His
T1 sequence: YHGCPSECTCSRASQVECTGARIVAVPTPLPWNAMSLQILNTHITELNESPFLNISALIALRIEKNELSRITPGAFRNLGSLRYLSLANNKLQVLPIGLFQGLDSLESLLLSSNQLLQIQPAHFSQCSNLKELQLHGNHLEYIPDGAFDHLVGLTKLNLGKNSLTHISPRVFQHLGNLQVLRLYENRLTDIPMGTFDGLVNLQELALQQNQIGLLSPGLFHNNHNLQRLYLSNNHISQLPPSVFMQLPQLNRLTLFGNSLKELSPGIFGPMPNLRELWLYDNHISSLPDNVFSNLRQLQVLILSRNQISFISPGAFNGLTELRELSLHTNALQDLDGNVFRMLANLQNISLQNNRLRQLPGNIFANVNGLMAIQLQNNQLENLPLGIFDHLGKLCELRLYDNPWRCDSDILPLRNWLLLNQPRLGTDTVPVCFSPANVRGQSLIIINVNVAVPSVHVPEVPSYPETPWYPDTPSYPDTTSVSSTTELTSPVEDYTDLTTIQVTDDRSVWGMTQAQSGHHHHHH
Protocol notes: SPR Biacore T200, antibody captured, LRRC15 analyte, 25°C
Result type: Kd (nM)
Answers are plain numbers, in nM.

[
  {
    "Binder": "TPP-14389 (antibody, human IgG1, kappa, V domains shown, also called 13612-rec02-hIgG1Kappa) VH: EVQLLESGGGLVQPGGSLRLSCAASGFTFSGYMMSWVRQAPGKGLEWVSGIYPSPGYTYYADSVKGRFTISRDNSKNTLYLQMNSLRAEDTAVYYCAREKASDLFGSYSEALDYWGQGTLVTVSS VL: DIQMTQSPDSLSASVGDRVTITCRASQDVGSWLAWYQQKPGKAPKLLIFAASSLESGIPSRFSGSGSGTDFTLTISSLQPEDFATYYCQQANGFPLTFGGGTKVEIKR",
    "Result type": "Kd",
    "Measure unit": "nM",
    "Result number": 5.4
  }
]

INPUT: What value of Kd has been reported for the following binder? TPP-12942 (antibody, human IgG1, kappa, V domains shown, Prior art humanized IgG1 kappa antibody, used as comparator; also called huM25; huM25-hIgG1Kappa) VH: EVQLVQSGAEVKKPGASVKVSCKASGYKFSSYWIEWVKQAPGQGLEWIGEILPGSDTTNYNEKFKDRATFTSDTSINTAYMELSRLRSDDTAVYYCARDRGNYRAWFGYWGQGTLVTVSS VL: DIQMTQSPSSLSASVGDRVTITCRASQDISNYLNWYQQKPGGAVKFLIYYTSRLHSGVPSRFSGSGSGTDYTLTISSLQPEDFATYFCQQGEALPWTFGGGTKVEIKR
OUTPUT: 21

Where do the numbers come from? From patent US20240108766A1.
